TARGET OR SYSTEM: UniProt P07308
ASSAY: SCD1 enzymatic assay in rat liver microsomes (RLM)
Assay type: biochemical
EXPERIMENTAL CONDITIONS: 1 μM test compound
# inhibition at 1 µM listing for each entry below
Entry rule: numbers only, all in %.

[
  {
    "MOLECULE": "Cc1cnc(NC(=O)N2CCC(N3CCc4ccc(F)cc43)CC2)s1",
    "METRIC NAME": "inhibition at 1 µM",
    "RESULT NUMBER": 83
  },
  {
    "MOLECULE": "CNC(=O)c1cccc(NC(=O)N2CCC(N3CCc4ccccc43)CC2)c1",
    "METRIC NAME": "inhibition at 1 µM",
    "RESULT NUMBER": 82
  },
  {
    "MOLECULE": "O=C(Nc1nc2c(s1)CCCC2)N1CCC(N2CCc3ccc(F)cc32)CC1",
    "METRIC NAME": "inhibition at 1 µM",
    "RESULT NUMBER": 68
  }
]

Identify measured inhibition at 1 µM corresponding to `Cc1csc(NC(=O)N2CCC(c3c[nH]c4ccccc34)CC2)n1`
2

Give the reported inhibition at 1 µM for this compound. `CNC(=O)c1cnc(NC(=O)N2CCC(N3CCc4ccc(F)cc43)CC2)s1`
94

Tell me measured inhibition at 1 µM for `O=C1NCCn2nc(NC(=O)N3CCC(N4CCc5ccc(F)cc54)CC3)cc21` please.
95

Tell me measured inhibition at 1 µM for `CNC(=O)c1cccc(NC(=O)N2CCC(c3noc4ccc(F)cc34)CC2)c1` please.
74

Fill in inhibition at 1 µM for record `NC(=O)c1csc(NC(=O)N2CCC(N3CCc4ccc(F)cc43)CC2)n1`
62

Tell me measured inhibition at 1 µM for `O=C(Nc1ncc(CCO)s1)N1CCC(N2CCc3ccc(F)cc32)CC1` please.
102

----------
TARGET OR SYSTEM: SCD1 (Rattus norvegicus (Rat), UniProt P07308)
Sequence (P07308 whole entry): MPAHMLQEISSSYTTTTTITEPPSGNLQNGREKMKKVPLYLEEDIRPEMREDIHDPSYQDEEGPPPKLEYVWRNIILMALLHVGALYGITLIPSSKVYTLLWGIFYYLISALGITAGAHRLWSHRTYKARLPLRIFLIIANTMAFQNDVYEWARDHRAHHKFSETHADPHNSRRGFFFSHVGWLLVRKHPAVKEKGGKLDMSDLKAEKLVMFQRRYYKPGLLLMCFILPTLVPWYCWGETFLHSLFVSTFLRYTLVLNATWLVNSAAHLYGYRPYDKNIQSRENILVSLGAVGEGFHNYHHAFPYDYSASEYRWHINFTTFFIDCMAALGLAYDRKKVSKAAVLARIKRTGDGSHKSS
ASSAY: SCD1 enzymatic assay in rat liver microsomes (RLM)
Format: biochemical
EXPERIMENTAL CONDITIONS: 1 μM test compound
Procedure: Step 1: Preparation of Rat Liver Microsome (RLM) Sprague Dawley rats from Charles River (200-225 g) underwent 2-cycle of fast-re-feeding (24-hour fast followed by 24-hour feeding with fat-free high carbohydrate diet, Research Diet, D00042802). The livers were removed and homogenized 1:4 (w/v) with pre-chilled, homogenizing buffer (10 mM Tris-HCl, 0.25 M sucrose, 1 mM EDTA, pH 7.4, supplemented with protease inhibitor cocktail). The homogenate was spun at 12,000×g for 15 min at 4° C. […]
METRIC NAME: % Inh. @ 1 μM (%)
Respond numerically; units are % and should not be typed.

Observe how each entry below is paired with its result.
[
  {
    "COMPOUND": "O=C1NCCn2nc(NC(=O)N3CCC(N4CCc5ccc(F)cc54)CC3)cc21",
    "METRIC NAME": "% Inh. @ 1 μM",
    "RESULT NUMBER": 89
  },
  {
    "COMPOUND": "O=C(Nc1nc2c(s1)CC(O)CC2)N1CCC(N2CCc3ccc(F)cc32)CC1 (stereo not shown)",
    "METRIC NAME": "% Inh. @ 1 μM",
    "RESULT NUMBER": 99
  }
]

Here's the next entry for you.
Fill: % Inh. @ 1 μM (SCD1 (Rattus norvegicus (Rat), UniProt P07308)) for this compound `Cc1csc(NC(=O)N2CCC(N3CCc4ccccc43)CC2)n1`
76

----------
inhibition at 1 µM reference
TARGET OR SYSTEM: SCD1 (Rattus norvegicus (Rat), UniProt P07308)
ASSAY: SCD1 enzymatic assay in rat liver microsomes (RLM)
Format: biochemical
EXPERIMENTAL CONDITIONS: 1 μM test compound
A complete answer gives the number followed by the unit.

[
  {
    "MOLECULE": "Cc1csc(NC(=O)N2CCC(n3ccc4ccccc43)CC2)n1 [Compound 4]",
    "METRIC NAME": "inhibition at 1 µM",
    "RESULT": "70%"
  },
  {
    "MOLECULE": "CC(=O)N1CCc2nc(NC(=O)N3CCC(N4CCc5ccc(F)cc54)CC3)sc2C1 [Compound 40]",
    "METRIC NAME": "inhibition at 1 µM",
    "RESULT": "46%"
  },
  {
    "MOLECULE": "O=C(Nc1nc2c(s1)CC(O)CC2)N1CCC(c2noc3ccc(F)cc23)CC1 (stereo not drawn) [Compound 60]",
    "METRIC NAME": "inhibition at 1 µM",
    "RESULT": "98%"
  },
  {
    "MOLECULE": "NC(=O)Cc1csc(NC(=O)N2CCC(N3CCc4ccc(F)cc43)CC2)n1 [Compound 30]",
    "METRIC NAME": "inhibition at 1 µM",
    "RESULT": "57%"
  },
  {
    "MOLECULE": "CCCCc1cc(NC(=O)N2CCC(c3noc4ccc(F)cc34)CC2)ccc1F [Compound 8]",
    "METRIC NAME": "inhibition at 1 µM",
    "RESULT": "12%"
  },
  {
    "MOLECULE": "CCOC(=O)c1ccc(NC(=O)N2CCC(N3CCc4ccc(F)cc43)CC2)cc1 [Compound 42]",
    "METRIC NAME": "inhibition at 1 µM",
    "RESULT": "21%"
  },
  {
    "MOLECULE": "CCOC(=O)c1csc(NC(=O)N2CCC(N3CCc4ccc(F)cc43)CC2)n1 [Compound 22]",
    "METRIC NAME": "inhibition at 1 µM",
    "RESULT": "8%"
  },
  {
    "MOLECULE": "O=C(Nc1nc2c(s1)COCC2)N1CCC(c2noc3ccc(F)cc23)CC1 [Compound 63]",
    "METRIC NAME": "inhibition at 1 µM",
    "RESULT": "55%"
  }
]

Please examine the following record next.
Specify the recorded inhibition at 1 µM for CNC(=O)Cc1csc(NC(=O)N2CCC(N3CCc4ccc(F)cc43)CC2)n1 [Compound 28] , system: SCD1 (Rattus norvegicus (Rat), UniProt P07308).
22%

----------
TARGET OR SYSTEM: SCD1 (Rattus norvegicus (Rat), UniProt P07308)
ASSAY: SCD1 enzymatic assay in rat liver microsomes (RLM)
Format: biochemical
EXPERIMENTAL CONDITIONS: 1 μM test compound
Some compounds, each annotated with its measured inhibition at 1 µM.
The figure you give is taken to be in %; do not add the unit.

Look over these answered cases.
[
  {
    "MOLECULE": "CNC(=O)c1cccc(NC(=O)N2CCC(c3noc4cc(F)ccc34)CC2)c1",
    "inhibition at 1 µM (%)": 23
  },
  {
    "MOLECULE": "NC(=O)c1cnc(NC(=O)N2CCC(N3CCc4ccc(F)cc43)CC2)s1",
    "inhibition at 1 µM (%)": 101
  },
  {
    "MOLECULE": "NC(=O)c1cc(NC(=O)N2CCC(N3CCc4ccc(F)cc43)CC2)ccc1CO",
    "inhibition at 1 µM (%)": 55
  },
  {
    "MOLECULE": "O=C(Nc1ncc(CO)s1)N1CCC(N2CCc3ccc(F)cc32)CC1",
    "inhibition at 1 µM (%)": 97
  }
]

Entry `O=C1OCc2ccc(NC(=O)N3CCC(N4CCc5ccc(F)cc54)CC3)cc21` needs its inhibition at 1 µM filled in; supply it.
83

----------
TARGET OR SYSTEM: UniProt:P07308
ASSAY: SCD1 enzymatic assay in rat liver microsomes (RLM)
Format: biochemical
EXPERIMENTAL CONDITIONS: 1 μM test compound
METRIC NAME: inhibition at 1 µM (%)
The reply should be a number in %, with the unit left off.

// known answers, use as guide
[
  {
    "MOLECULE": "NC(=O)CN1CCc2nc(NC(=O)N3CCC(N4CCc5ccc(F)cc54)CC3)sc2C1",
    "RESULT NUMBER": 38
  },
  {
    "MOLECULE": "O=C(Nc1ncc(CCO)s1)N1CCC(c2noc3ccc(F)cc23)CC1",
    "RESULT NUMBER": 92
  },
  {
    "MOLECULE": "Cc1csc(NC(=O)N2CCC(c3noc4cc(F)ccc34)CC2)n1",
    "RESULT NUMBER": 40
  },
  {
    "MOLECULE": "COC(=O)Cc1cnc(NC(=O)N2CCC(c3noc4ccc(F)cc34)CC2)s1",
    "RESULT NUMBER": 15
  },
  {
    "MOLECULE": "CCOC(=O)CN1CCc2nc(NC(=O)N3CCC(N4CCc5ccc(F)cc54)CC3)sc2C1",
    "RESULT NUMBER": 42
  }
]

System UniProt:P07308. Read-out inhibition at 1 µM. Item `NC(=O)c1cccc(NC(=O)N2CCC(N3CCc4ccc(F)cc43)CC2)c1` . Report value.
96

Tell me inhibition at 1 µM of `NC(=O)c1cccc(NC(=O)N2CCC(n3ncc4c(F)cccc43)CC2)c1` when tested on UniProt:P07308.
86

# assay system UniProt:P07308: give inhibition at 1 µM of `CNC(=O)c1csc(NC(=O)N2CCC(N3CCc4ccc(F)cc43)CC2)n1`
20
